Molecular target: AKR1B15 (Homo sapiens, UniProt C9JRZ8)
Construct: made in house; host or cells: E. coli BL21(DE3), with or without chaperone plasmids pBB540/pBB542
Sequence (C9JRZ8 whole entry): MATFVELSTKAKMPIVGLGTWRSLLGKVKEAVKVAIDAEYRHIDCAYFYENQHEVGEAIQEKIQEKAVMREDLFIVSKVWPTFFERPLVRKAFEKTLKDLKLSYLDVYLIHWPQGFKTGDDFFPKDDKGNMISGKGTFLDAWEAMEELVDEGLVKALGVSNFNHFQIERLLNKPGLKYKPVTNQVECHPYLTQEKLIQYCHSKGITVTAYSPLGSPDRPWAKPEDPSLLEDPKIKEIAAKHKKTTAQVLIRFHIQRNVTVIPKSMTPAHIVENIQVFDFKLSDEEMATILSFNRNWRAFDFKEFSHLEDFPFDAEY
Assay: Spectrophotometric activity assay (NADPH decrease at 340 nm), substrate kinetics
Format: biochemical
Conditions: substrate, spectrophotometric, pH 7.0, 25°C, 0.2 mM NADPH
# note: exactly 0.1 s⁻¹ is not below, so it is label 0; use label 1 for k cat strictly under it

Please review the entries below; each comes with its answer.
{"compound": "CCC(C)=O [2-butanone]", "test target": "AKR1B15 (Homo sapiens, UniProt C9JRZ8)", "class name": "label 0"}
{"compound": "CCC(=O)CC(=O)CC [3,5-heptanedione]", "test target": "AKR1B15 (Homo sapiens, UniProt C9JRZ8)", "class name": "label 1"}
{"compound": "O=Cc1cccnc1 [pyridine-3-aldehyde]", "test target": "AKR1B15 (Homo sapiens, UniProt C9JRZ8)", "class name": "label 0"}

Problem: Confirm or reject: k cat of CCCCCC=CC(C)=O [3-nonen-2-one] lies strictly below 0.1 s⁻¹
Result: label 0

Problem: Confirm or reject: k cat of C=CC(C)=O [3-buten-2-one] lies strictly below 0.1 s⁻¹
Result: label 0

Problem: Confirm or reject: k cat of CCCCCC(O)C=CC=O (stereo not drawn) [4-hydroxy-2-nonenal] lies strictly below 0.1 s⁻¹
Result: label 1

Problem: Confirm or reject: k cat of CCCC(=O)C(C)=O [2,3-hexanedione] lies strictly below 0.1 s⁻¹
Result: label 0

Problem: Confirm or reject: k cat of O=CC(O)CO (racemic) [D,L-glyceraldehyde] lies strictly below 0.1 s⁻¹
Result: label 0

Problem: Confirm or reject: k cat of CC(=O)CC(C)=O [2,4-pentanedione] lies strictly below 0.1 s⁻¹
Result: label 1

Problem: Confirm or reject: k cat of CCCCCC=O [hexanal] lies strictly below 0.1 s⁻¹
Result: label 0

Problem: Confirm or reject: k cat of O=Cc1ccccc1 [benzaldehyde] lies strictly below 0.1 s⁻¹
Result: label 0
